- tested_target: MERS-CoV spike protein (EMC/2012), wt (MERS-CoV (isolate EMC/2012), UniProt K9N5Q8 18-1353)
- protocol_notes: cell-based or functional assay
endpoint: % Neutralization (.025 µg/ml), MERSpp infectivity (%)

{"columns": ["binder", "value_observed"],
 "data": [
  ["H1M15269N (antibody, V domains shown) VH: EVQLLESGGGLVQPGGSLRLSCPASGFTFSNYAMTWVRQAPGKGLEWVSAISGSGATTKYADSVKGRFTISRDNSRNTLYLQMNSLRAEDTAVYYCAKGGSGSYFPYYYYGLDVWGQGTTVTVSS VL: EIVMTQSPATLSVSPGDSATLSCRASQTVSSNLAWYQQKPGQAPRLLIYGASTRATGIPARFSGSGSGTEFTLTISSLQSEDFAVYYCQQYYNWWTFGQGTKVEIK", 40],
  ["H2bM15292N (antibody, V domains shown) VH: QVQLVQSGAEVKKPGSSVKVSCKASGGTFNNYAISWVRQAPGQGLEWMGGIIPFFGTTNYAQKFQDRVTITSDDSTITAYMELSRLRSEDTAVYYCARDEPRRDGYNYYHYYYMDVWGQGTTVTVSS VL: DIQMTQSPSSLSASVGDRVTITCRASQSINSYLNWYQQKPGKAPNLLIYAASSLQSGVPSRFSGSGSGTDFTLTISSLHPEDFATYYCQQSYSTPPITFGQGTRLEIK", 91],
  ["H2aM15278N (antibody, V domains shown) VH: QVQLVQSGAEVKKPGASVKVSCKASGYTFTSHGISWVRQAPGQGFEWMGWIGTYNSNTDYAQNFQGRVTMTTDTSTSTAYMELRNLRSDDTAVYYCARERGPYYGMDVWGQGTTVTVSS VL: EIVLAQSPGTLSLSPGERATLSCRASQSVNSNYLAWYQQKPGQAPRLLIYGASSRATGIPDRFSGSGSGTDFTLTISRLEPEDFAVYYCQQYGNSLTFGPGTKVDFK", 98],
  ["H1M15289N (antibody, V domains shown) VH: QVQLQESGPGLVKPSETLSLTCTVSGGSISSYYWSWIRQPPGKGLEWIGYIYYSGSANYNPSLKSRVTISVDTSKNQFSLKLSSVTAADTAVYYCVRDRDLLLDHWGQGTLVTVSS VL: EIVMTQSPATLSVSPGKRATLSCRASQSVSSNLAWYQQKPGQAPRLLIYGASTRTTGFPARFSGSGSGTDFTLTISSLQSEDFAVYYCQQYNNWPYTFGQGTMLEIK", 89]
]}
